The reported numbers originate from PubChem BioAssay.

Listed next: entries and their corresponding viability.
- assay-notes: ovarian cancer cell viability with rucaparib, profiling panel, oncology-focused library, rucaparib conditional (AID 1508598)
- recorded-conditions: patient-derived ovarian cancer cells, CellTiter-Glo viability, 144 h; at 0.0195 µM; OCI-C5x cells; without rucaparib; hits give low values
// return numeric value only (unit: %, not printed)

Examples from the recorded data:
>>> readout_number("NC(=O)c1ccc(-c2nc(-c3ccc4c(c3)OCO4)c(-c3ccccn3)[nH]2)cc1")
143
>>> readout_number("CC1=C(/C=C/C(C)=C/C=C/C(C)=C/C(=O)O)C(C)(C)CCC1")
111
>>> readout_number("CC(C)C(=O)Nc1ccc([N+](=O)[O-])c(C(F)(F)F)c1")
118
>>> readout_number("CCN(CC)C(=S)SSC(=S)N(CC)CC")
126
>>> readout_number("O=C1CCC(N2C(=O)c3ccccc3C2=O)C(=O)N1 (stereo unspecified)")
109

Next compound, please.
Q: Give the measured viability of CCCCCCNC(=O)n1cc(F)c(=O)[nH]c1=O .
Ans: 113
